TEST READOUT: logP
Numbers only.

// each listed compound needs a value for logP
1. Cc1cc(O)c(C(C)(C)C)cc1CC(N)=O
2. O=c1[nH]c2nc(O)nc(O)c2[nH]1
3. CCC1(CCC(C)C)C(=O)NC(=O)NC1=O

[2.67, -2.17, 2.07]

Quick request: logP for each listed item, please.
1. CCc1ccccc1O
2. CNCC(O)c1ccc(O)c(O)c1 (stereo not drawn)
3. O=[N+]([O-])c1cccc2c1c([N+](=O)[O-])cc[n+]2[O-]
4. CN(C)C(=O)Nc1ccc(Cl)cc1
5. Cc1cccc(OCCN(C)C)c1
6. Cc1cc(Cl)ccc1NN=C(C#N)C(=O)C(C)C
7. Nc1ccc(Cl)cc1

[2.47, -1.37, 0.95, 1.94, 2.05, 4.31, 1.83]

Items follow; give logP for each.
1. Nc1ncnc2c1ncn2[C@@H]1O[C@H](CO)[C@@H](O)[C@H]1O
2. O=C(/C=C/c1ccccc1)c1ccccc1
3. O=[N+]([O-])c1ccc(O)c([N+](=O)[O-])c1

[-1.05, 3.08, 1.67]
